Values were extracted from ChEMBL document CHEMBL1944624.

Entries and their IC50
Test system: Plasmodium falciparum
EXPERIMENTAL_PROTOCOL: microbe, parasite or virus in culture
Type: functional, organism-based
PROTOCOL_CONDITIONS: K1
Description: Antiprotozoal activity against erythrocytic stages chloroquine- and pyrimethamine-resistant Plasmodium falciparum K1 assessed as inhibition of [3H]hypoxanthine incorporation pre-incubated for 48 hrs prior [3H]hypoxanthine addition measured after 24 hrs by liquid scintillation counting

COc1cc(/C=C/c2cccc(Oc3ccccc3)c2)oc(=O)c1 ... 4.9 µM

Exercise: Give its IC50 value. Item: COC1=CC(=O)O[C@]2(/C=C/c3ccc(OC)c(OC)c3)[C@H]1[C@H](c1ccc(OC)c(OC)c1)[C@H]2c1cc(OC)cc(=O)o1 (relative stereo)
Solution: 1.5 µM

Exercise: Which IC50 reading was recorded for the compound COc1cc(/C=C/c2ccc(C(C)(C)C)cc2)oc(=O)c1 ?
Solution: 5.3 µM

Exercise: For COc1cc(CCc2ccc3c(c2)OCO3)oc(=O)c1 , what is its reported IC50?
Solution: > 18 µM

Exercise: Item COc1cc(/C=C/C=C/c2ccccc2)oc(=O)c1 has what recorded IC50?
Solution: 6.7 µM

###

Test system: Plasmodium falciparum
EXPERIMENTAL_PROTOCOL: microbe, parasite or virus in culture
Type: functional, organism-based
PROTOCOL_CONDITIONS: K1
Class assignment keyed on IC50, ranges c1 = under 4 µM, c2 = from 4 µM up to 7 µM, c3 = 7 µM and over

Exercise: Place this compound in its band: COc1cc(/C=C/c2ccc(OC)c(OC)c2)oc(=O)c1
Solution: c1

Exercise: Bin? COc1cc(/C=C/c2ccc([N+](=O)[O-])cc2)oc(=O)c1
Solution: c2

###

System: Plasmodium falciparum
EXPERIMENTAL_PROTOCOL: Antiprotozoal activity against chloroquine resistant Plasmodium falciparum K1
Assay type: functional, organism-based
READOUT_TYPE: IC50 (µM)
Write the answer as a number in µM, unit excluded.

Exercise: Please tell me: IC50 of CCCCCCCC1CC(O)=C(CCCCCC)C(=O)O1 (stereo unspecified) , system Plasmodium falciparum?
Solution: 48

###

System: Plasmodium falciparum
EXPERIMENTAL_PROTOCOL: microbe, parasite or virus in culture
Assay type: functional, organism-based
PROTOCOL_CONDITIONS: K1
READOUT_TYPE: IC50 (µM)
Record the value in µM, omitting the unit from your answer.

COc1cc(/C=C/c2cccc([N+](=O)[O-])c2)oc(=O)c1 ... 12
COc1cc(/C=C/c2cccc3ccccc23)oc(=O)c1 ... 4.6

Exercise: For COc1cc(/C=C/c2ccccc2)oc(=O)c1 , what is its reported IC50?
Solution: 13

Exercise: For the molecule COc1cc(=O)oc([C@H]2[C@H](c3ccc4ccccc4c3)[C@H](c3cc(OC)cc(=O)o3)[C@H]2c2ccc3ccccc3c2)c1 , what IC50 is on record?
Solution: 2.3

###

System: Plasmodium falciparum
EXPERIMENTAL_PROTOCOL: Antiprotozoal activity against Plasmodium falciparum
Assay type: functional, organism-based
READOUT_TYPE: pIC50
The quantity pIC50 is defined as the negative base-10 logarithm of the molar concentration.

Exercise: // pIC50 lookup, key: CCCCCCc1c(OC)cc(CCCCC)oc1=O
Solution: 4.96

###

Tested on: Plasmodium falciparum
EXPERIMENTAL_PROTOCOL: microbe, parasite or virus in culture
Format: functional, organism-based
PROTOCOL_CONDITIONS: K1
READOUT_TYPE: IC50 (µM)
Lab book: enter the figure in µM, no units written.

Previously resolved entries follow.
COc1cc(/C=C/c2ccco2)oc(=O)c1 ... 17
COc1cc(/C=C/c2ccc3c(c2)OCO3)oc(=O)c1 ... 5.6
COc1cc(=O)oc([C@H]2[C@H](c3ccc(OC)c(OC)c3)[C@H](c3cc(OC)cc(=O)o3)[C@H]2c2ccc(OC)c(OC)c2)c1 ... 3.1
COc1cc([C@@H]2[C@@H](c3ccccc3)[C@@H](c3ccccc3)[C@@H]2c2cc(OC)cc(=O)o2)oc(=O)c1 ... 3.8

Pending molecule:
Exercise: Which IC50 is listed for COc1cc(/C=C/C=C/c2ccc(N(C)C)cc2)oc(=O)c1 ?
Solution: 7.2

###

Test system: Plasmodium falciparum
EXPERIMENTAL_PROTOCOL: microbe, parasite or virus in culture
Type: functional, organism-based
PROTOCOL_CONDITIONS: K1
READOUT_TYPE: pIC50
# log scale: pIC50 equals minus log10 of the concentration in mol/L

These recorded examples may help you get a feel for the data.
COc1cc(/C=C/c2ccc(/C=C/c3cc(OC)cc(=O)o3)cc2)oc(=O)c1 ... 5.07
COC1=CC(=O)O[C@]2(/C=C/c3ccccc3)[C@H]1[C@H](c1ccccc1)[C@H]2c1cc(OC)cc(=O)o1 (relative stereo) ... 5.15
COc1cc(/C=C/c2cccc(Oc3ccc(C(C)(C)C)cc3)c2)oc(=O)c1 ... 5.20
COc1cc(CCc2ccc(C(C)(C)C)cc2)oc(=O)c1 ... 4.96
COc1cc(CCc2cccc(Oc3ccc(C(C)(C)C)cc3)c2)oc(=O)c1 ... 5.14

Exercise: If you can, please state the reported pIC50 value of COc1cc(CCc2ccc(CCc3cc(OC)cc(=O)o3)cc2)oc(=O)c1 .
Solution: 5.44

Exercise: May I ask what pIC50 has been recorded for COc1cc(/C=C/c2ccc3ccccc3c2)oc(=O)c1 ?
Solution: 5.89

###

Tested on: Plasmodium falciparum
EXPERIMENTAL_PROTOCOL: microbe, parasite or virus in culture
Assay type: functional, organism-based
PROTOCOL_CONDITIONS: K1
READOUT_TYPE: IC50

Exercise: What does the data say about its IC50? Entry: COc1cc(CCc2cccc3ccccc23)oc(=O)c1
Solution: > 18 µM

Exercise: What value of IC50 has been recorded for this entry: COc1cc(CCc2ccc3ccccc3c2)oc(=O)c1
Solution: 16 µM

Exercise: Tell me the measured IC50 of COC1=CC(=O)O[C@]2(/C=C/c3cccc(Oc4ccc(C(C)(C)C)cc4)c3)[C@H]1[C@H](c1cccc(Oc3ccc(C(C)(C)C)cc3)c1)[C@H]2c1cc(OC)cc(=O)o1 (racemic) , please.
Solution: 4.4 µM

Exercise: Endpoint output: IC50 of COC1=CC(=O)O[C@]2(/C=C/c3ccc(C(C)(C)C)cc3)[C@H]1[C@H](c1ccc(C(C)(C)C)cc1)[C@H]2c1cc(OC)cc(=O)o1 (racemic) . Value?
Solution: 1.7 µM
